# experiment_description: Selectivity index, ratio of CC50 for human RD cells to EC50 for Enterovirus 71
# Format: toxicity, cell-based
# conditions_used: read-out: Ratio CC50/EC50
Form field: selectivity ratio (one value per entry).
// no unit string in output, number only

Please review the entries below; each comes with its answer.
{"compound_structure": "CCc1ccc(C(=O)NNc2c(C)cccc2Cl)cc1", "test_value": 10}
{"compound_structure": "CC(C)(C)c1ccc(C(=O)NNc2c(F)cccc2F)cc1", "test_value": 43}
{"compound_structure": "Cc1cccc(C)c1NNC(=O)c1ccc(C(C)(C)C)cc1", "test_value": 454}

We now examine a further compound.
**Q:** Returns the measured selectivity ratio for the input compound. Input: CCCc1ccc(C(=O)NNc2c(C)cccc2Cl)cc1
**A:** 52.4
